System: 786-0
Assay Explanation: NCI tumour cell line growth inhibition, 48 h
Calls of active or inactive are those of the source. Cut-off read from the data, not from the text of the source: active = GI50 up to about 1.1 µM and inactive = higher.
Test Readout: GI50

Guide cases for GI50, answers given:
C=C(Cl)/C(=C\Cl)CCC(Br)C(C)C (stereo unspecified) | 60.1 µM (inactive)
COc1cc(/C=C2/SC(c3ccccc3)N(c3ccccc3)C2=O)cc(OC)c1OC (stereo unspecified) | > 100 µM (inactive)
C#CC(C)(C)Oc1cc(OC)c2c(=O)c3ccccc3n(C)c2c1 | 7.46 µM (inactive)

Asked: Entry under review: CN(C)CCc1ccnc2nc(-c3ccc4ccccc4c3)cn12 . Reported GI50?
Given back: 25 µM (inactive)

Asked: Value lookup for GI50; key = CC1=CC(=O)/C(=C/n2c(=S)[nH]c3ccc([N+](=O)[O-])cc32)C(=O)O1
Given back: > 100 µM (inactive)

Asked: Bench note: what GI50 did CC(C)(C)C1=CC(=C(P(=O)(O)O)P(=O)(O)O)C=C(C(C)(C)C)C1=O show?
Given back: > 50 µM (inactive)
